# glycan array binding signal (z-score) values compiled below
- System Name: Neu5Ac(a2-3)Gal(b1-3)GlcNAc6S
- Experiment: glycan array binding signal (z-score within array); higher = stronger binding
- Settings: glycan notation: IUPAC condensed, linker removed
This excerpt belongs to a sample that is enriched for the strongest signals.
// return just the number, without any unit appended

| Binder | glycan array binding signal (z-score) |
| --- | --- |
| EEA (Euonymus europaeus) (protein) MASTIIATGPTYRVYCRAAPNYNMIVGKGVAFLAPIDETNELQYWYKDDTYSYIKDEAGLPAFSLVNKATGLTLKHSNHHPVPVKLVTYNPNVVDESVLWSQADDRGDGYSAIRSLTNPASHLEAAPLNDWSYNGAIIMGGVWIDAYNQQWKIEPHTG | -0.092 |

# input glycan array binding signal (z-score) lookup needed for HPA (Helix pomatia), Q2F1K8 (protein) MQAFYSGLLLLCVVAFAAAQRVQSGKIDCGNDAGWAKVPSDDPGRDNTRELAKNITFASPYCRPPVVLLSITQLDVEQSQNLRVIARLYSVSPTGFKASCYTWHNTKVYSMSISWISIENY , thanks.
# output -0.281

# input I am curious: what glycan array binding signal (z-score) value has been reported for Gal 1 (Canis lupus) (protein) MACGLVASNLSLKPGQCLRVQCEVVPEAKSFVLNLGKDGDNLCLHFNPRFEAHGDVNTIVCNSKDGGAWGEELRESAFPFQPGTVTEVCISFDQADLTIKLPDGYTFKFPNRLNLEAISYLAADGDMKIKCLAFD ?
# output -0.31

# input Reported glycan array binding signal (z-score), binder Mermaid1 (Stilbonema majum) (protein) MGSSHHHHHHSSGLVPRGSHMAASGWLRSPQGTVVKLYRRSLSWSKADEFCKDVDGRLVVDRTADMHLFLIKNVLKEKKSRVWVGLRRTAPHSRTWIWSDGTRQNEDDLDANLWLRDEPNDAAGEEECALFMYSPWEKAWGLNDYLCRGGCRSYQFICEKWIR : ____
# output 0.494

# input I'd like to know its glycan array binding signal (z-score). The binder in question is Lb MiSSP8 (Laccaria bicolor) (protein) MYFHTLFACATLMLITTAHASPTVINSLDSRKADLNGDVEARHAADWRRDSDWRRDSDWRRDSDWRRDSD
# output -0.226

# input Please report the recorded glycan array binding signal (z-score) for CVNH0 (Neurospora crassa), Q7S6U4 (protein) GSHIGPYMSFHVTAEDARIEVRDNRTILFARLRREDGEWNDASYELDQIIGNNDGHFQWGGQNFTETAEDIRFHPKEGAAEQPILRARLRDCNGEFHDRDVNLTEIVENVNGEFQAKF .
# output 0.204

# input Return reported glycan array binding signal (z-score); argument: MRCL (Homo sapiens), NP_872425.1 (protein) ATKVHFPFHTCDLRIDGDCFMVSSEADTYYRARMKCQRKGGVLAQIKSQKVQDILAFYLGRLETTNEVTDSDFETRNFWIGLTYKTAKDSFRWATGEHQAFTSFAFGQPDNHGLVWLSAAMGFGNCVELQASAAFNWNNQRCKTRNRYICQFAQEHISRWGPGS
# output -0.562
